Assay: AUC in BALB/c mouse at 20 mg/kg, po measured upto 24 hrs by LC-MS/MS analysis
Format: ADME, organism-based
Set-up: dose 20 mg/kg, time < 24 hr, route oral
Conditions: in vivo
PROPERTY: AUC at 24 h (µM·h)

- MOL SMILES: "CN1C(C)(C)CC(Nc2nc3c(-c4ccc(C(=O)N5C[C@@H]6C[C@H]5CO6)cc4)cnn3c(N)c2-c2ccccc2)CC1(C)C"
  PROPERTY: "AUC at 24 h"
  OBSERVED VALUE: 6.8
- MOL SMILES: "COc1ccc(-c2cnn3c(N)c(-c4ccccc4)c(NC4CC(C)(C)N(C)C(C)(C)C4)nc23)cc1OC.Cl"
  PROPERTY: "AUC at 24 h"
  OBSERVED VALUE: 12

====

Assay: Aqueous solubility of compound at pH 6.8 incubated for 24 hrs by HPLC/UV analysis
Assay type: physicochemical
Criterion: solubility at 24 h meeting or surpassing 50 µM. Met: TRUE. Not met: FALSE.

- MOL SMILES: "COc1ccc(-c2cnn3c(N)c(-c4ccccc4)c(NC4CC(C)(C)N(C)C(C)(C)C4)nc23)cc1OC"
  LABEL CLASS: "FALSE"
- MOL SMILES: "COc1ccc(-c2cnn3c(N)c(-c4ccccc4)c(OC4CCN(C)CC4)nc23)cc1OC"
  LABEL CLASS: "FALSE"
- MOL SMILES: "COc1ccc(-c2cnn3c(N)c(-c4ccccc4)c(NC4CCN(C)CC4)nc23)cc1OC"
  LABEL CLASS: "TRUE"
- MOL SMILES: "COc1ccc(-c2cnn3c(N)c(-c4ccccc4)c(NCCCN(C)C)nc23)cc1OC"
  LABEL CLASS: "TRUE"
- MOL SMILES: "COc1ccc(-c2cnn3c(N)c(-c4ccccc4)c(OC4CCNCC4)nc23)cc1OC"
  LABEL CLASS: "FALSE"
- MOL SMILES: "COc1ccc(-c2cnn3c(N)c(-c4ccccc4)c(OCCCN(C)C)nc23)cc1OC"
  LABEL CLASS: "TRUE"

====

Test: Clearance in BALB/c mouse at 2 mg/kg, iv measured upto 24 hrs by LC-MS/MS analysis
Assay type: ADME, organism-based
Conditions: in vivo
# reported clearance; entries follow

- MOL SMILES: "CN1C(C)(C)CC(Nc2nc3c(-c4ccc(C(=O)N5CCN(S(C)(=O)=O)CC5)cc4)cnn3c(N)c2-c2ccccc2)CC1(C)C"
  UNITS SYMBOL: "mL/min/kg"
  clearance: 110
- MOL SMILES: "COC(=O)N1CCN(C(=O)c2ccc(-c3cnn4c(N)c(-c5ccccc5)c(NC5CC(C)(C)N(C)C(C)(C)C5)nc34)cc2)CC1"
  UNITS SYMBOL: "mL/min/kg"
  clearance: 19

====

Assay: Oral bioavailability in BALB/c mouse at 20 mg/kg measured upto 24 hrs by LC-MS/MS analysis
Assay type: ADME, organism-based
Conditions: in vivo
PROPERTY: bioavailability (%)

- MOL SMILES: "COc1ccc(-c2cnn3c(N)c(-c4ccccc4)c(NC4CC(C)(C)N(C)C(C)(C)C4)nc23)cc1OC.Cl"
  OBSERVED VALUE: 94
- MOL SMILES: "CN1C(C)(C)CC(Nc2nc3c(-c4ccc(C(=O)N5C[C@@H]6C[C@H]5CO6)cc4)cnn3c(N)c2-c2ccccc2)CC1(C)C"
  OBSERVED VALUE: 64

====

Recorded Cmax for the following molecules
Experiment: Cmax in BALB/c mouse at 10 mg/kg, po measured upto 24 hrs by LC-MS/MS analysis
Type: ADME, organism-based
Design: dose 10 mg/kg, route oral
Details: in vivo

- MOL SMILES: "COC(=O)N1CCN(C(=O)c2ccc(-c3cnn4c(N)c(-c5ccccc5)c(NC5CC(C)(C)N(C)C(C)(C)C5)nc34)cc2)CC1"
  UNITS SYMBOL: "nM"
  Cmax: 820
- MOL SMILES: "CN1C(C)(C)CC(Nc2nc3c(-c4ccc(C(=O)N5CCN(S(C)(=O)=O)CC5)cc4)cnn3c(N)c2-c2ccccc2)CC1(C)C"
  UNITS SYMBOL: "nM"
  Cmax: 100

====

Target: Voltage-gated inwardly rectifying potassium channel KCNH2 (Homo sapiens, UniProt Q12809)
Sequence (Q12809 whole entry): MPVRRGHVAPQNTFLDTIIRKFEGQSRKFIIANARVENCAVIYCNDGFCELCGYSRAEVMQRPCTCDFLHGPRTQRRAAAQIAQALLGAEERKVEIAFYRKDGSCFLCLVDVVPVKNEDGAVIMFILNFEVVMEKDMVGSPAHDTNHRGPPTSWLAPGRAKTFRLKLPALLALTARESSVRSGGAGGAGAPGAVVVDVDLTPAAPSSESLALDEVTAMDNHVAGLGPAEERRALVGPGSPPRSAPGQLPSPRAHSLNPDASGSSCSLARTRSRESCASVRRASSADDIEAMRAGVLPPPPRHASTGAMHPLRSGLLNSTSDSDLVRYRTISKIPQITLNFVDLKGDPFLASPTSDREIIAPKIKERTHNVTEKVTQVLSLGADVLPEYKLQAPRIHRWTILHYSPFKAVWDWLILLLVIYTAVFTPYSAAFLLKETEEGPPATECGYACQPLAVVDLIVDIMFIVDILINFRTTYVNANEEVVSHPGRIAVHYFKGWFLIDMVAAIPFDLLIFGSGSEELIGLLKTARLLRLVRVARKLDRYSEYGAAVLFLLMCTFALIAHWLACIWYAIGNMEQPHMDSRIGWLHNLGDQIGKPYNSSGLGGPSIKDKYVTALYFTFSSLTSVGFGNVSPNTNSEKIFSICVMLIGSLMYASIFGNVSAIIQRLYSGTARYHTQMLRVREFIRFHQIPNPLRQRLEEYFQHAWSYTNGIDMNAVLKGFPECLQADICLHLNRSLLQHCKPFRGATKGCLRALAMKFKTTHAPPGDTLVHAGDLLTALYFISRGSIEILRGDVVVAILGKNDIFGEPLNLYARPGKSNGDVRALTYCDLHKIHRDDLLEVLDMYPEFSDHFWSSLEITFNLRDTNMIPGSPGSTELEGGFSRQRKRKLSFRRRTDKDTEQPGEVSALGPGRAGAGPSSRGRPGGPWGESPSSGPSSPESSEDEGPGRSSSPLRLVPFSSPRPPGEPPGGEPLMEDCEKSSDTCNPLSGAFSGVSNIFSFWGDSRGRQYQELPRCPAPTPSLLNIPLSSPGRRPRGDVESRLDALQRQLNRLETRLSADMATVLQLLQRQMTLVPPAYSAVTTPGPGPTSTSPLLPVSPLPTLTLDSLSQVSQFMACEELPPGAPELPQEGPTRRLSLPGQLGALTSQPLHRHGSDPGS
Assay: Inhibition of human ERG expressed in human embryonic kidney cells by manual patch clamp assay
Assay type: cell-based
Conditions: read-out: IC50

- MOL SMILES: "CN1C(C)(C)CC(Nc2nc3c(-c4ccc(C(=O)N5C[C@@H]6C[C@H]5CO6)cc4)cnn3c(N)c2-c2ccccc2)CC1(C)C"
  UNITS SYMBOL: "µM"
  IC50: 2.8

====

Here the recorded Kp at 24 h is given for each entry.
Assay: Ratio of AUC in BALB/c mouse brain to plasma at 20 mg/kg, po measured upto 24 hrs by LC-MS/MS analysis
Format: ADME, organism-based
Conditions: brain and plasma
PROPERTY: Kp at 24 h

- MOL SMILES: "COc1ccc(-c2cnn3c(N)c(-c4ccccc4)c(NC4CC(C)(C)N(C)C(C)(C)C4)nc23)cc1OC.Cl"
  PROPERTY: "Kp at 24 h"
  OBSERVED VALUE: 0.94
- MOL SMILES: "CN1C(C)(C)CC(Nc2nc3c(-c4ccc(C(=O)N5C[C@@H]6C[C@H]5CO6)cc4)cnn3c(N)c2-c2ccccc2)CC1(C)C"
  PROPERTY: "Kp at 24 h"
  OBSERVED VALUE: 0.15

====

Catalogue of half-life readings, one per entry.
Experiment: Half life in BALB/c mouse at 5 mg/kg, iv measured upto 24 hrs by LC-MS/MS analysis
Assay type: ADME, organism-based
Conditions: in vivo

- MOL SMILES: "COc1ccc(-c2cnn3c(N)c(-c4ccccc4)c(NC4CC(C)(C)N(C)C(C)(C)C4)nc23)cc1OC"
  UNITS SYMBOL: "h"
  half-life: 3.9
- MOL SMILES: "CN1C(C)(C)CC(Nc2nc3c(-c4ccc(C(=O)N5C[C@@H]6C[C@H]5CO6)cc4)cnn3c(N)c2-c2ccccc2)CC1(C)C"
  UNITS SYMBOL: "h"
  half-life: 1.8

====

Biological target: Voltage-gated inwardly rectifying potassium channel KCNH2 (Homo sapiens)
Assay: Displacement of [3H]-dofetilide from human ERG expressed in CHO cells incubated for 90 mins by microbeta scintillation counting method
Format: cell-based
pIC50: −log10 of the molar value.
In this section, each of the molecules is paired with its reported pIC50.
PROPERTY: pIC50

- MOL SMILES: "COC(=O)N1CCN(C(=O)c2ccc(-c3cnn4c(N)c(-c5ccccc5)c(NC5CC(C)(C)N(C)C(C)(C)C5)nc34)cc2)CC1"
  OBSERVED VALUE: 5.12
- MOL SMILES: "CN1C(C)(C)CC(Nc2nc3c(-c4ccc(C(=O)N5C[C@@H]6C[C@H]5CO6)cc4)cnn3c(N)c2-c2ccccc2)CC1(C)C"
  OBSERVED VALUE: 5.33

====

Assay: Cmax in BALB/c mouse at 2 mg/kg, iv measured upto 24 hrs by LC-MS/MS analysis
Assay type: ADME, organism-based
Design: dose 2 mg/kg, route intravenous
Conditions: in vivo
PROPERTY: Cmax (nM)

- MOL SMILES: "CN1C(C)(C)CC(Nc2nc3c(-c4ccc(C(=O)N5CCN(S(C)(=O)=O)CC5)cc4)cnn3c(N)c2-c2ccccc2)CC1(C)C"
  OBSERVED VALUE: 450
- MOL SMILES: "COC(=O)N1CCN(C(=O)c2ccc(-c3cnn4c(N)c(-c5ccccc5)c(NC5CC(C)(C)N(C)C(C)(C)C5)nc34)cc2)CC1"
  OBSERVED VALUE: 940

====

Assay: Clearance in BALB/c mouse at 5 mg/kg, iv measured upto 24 hrs by LC-MS/MS analysis
Assay type: ADME, organism-based
Conditions: in vivo
Documented clearance across a set of molecules

- MOL SMILES: "CN1C(C)(C)CC(Nc2nc3c(-c4ccc(C(=O)N5C[C@@H]6C[C@H]5CO6)cc4)cnn3c(N)c2-c2ccccc2)CC1(C)C"
  clearance, mL/min/kg: 54
- MOL SMILES: "COc1ccc(-c2cnn3c(N)c(-c4ccccc4)c(NC4CC(C)(C)N(C)C(C)(C)C4)nc23)cc1OC"
  clearance, mL/min/kg: 51

====

Assay: Ratio of Cmax in BALB/c mouse brain to plasma at 20 mg/kg, po measured upto 24 hrs by LC-MS/MS analysis
Format: ADME, organism-based
Details: brain and plasma
PROPERTY: Kp at 24 h

- MOL SMILES: "COc1ccc(-c2cnn3c(N)c(-c4ccccc4)c(NC4CC(C)(C)N(C)C(C)(C)C4)nc23)cc1OC.Cl"
  OBSERVED VALUE: 0.81
- MOL SMILES: "CN1C(C)(C)CC(Nc2nc3c(-c4ccc(C(=O)N5C[C@@H]6C[C@H]5CO6)cc4)cnn3c(N)c2-c2ccccc2)CC1(C)C"
  OBSERVED VALUE: 0.13
